Hey, just so you know, these numbers are from PubChem BioAssay AID743404.

Tested on: Mycobacterium tuberculosis replicating growth, CFU imaging
Test: replicating M. tuberculosis growth inhibition, dose response, imaging, dry powder (AID 743404)
Calls of active or inactive are those of the source. No rule for the calls is given here.
Mark one answer only. Choices: class 1 for active, class 0 for inactive

>>> discrete_label("Cc1ccccc1C(=O)Nc1nc2ccccc2n1C")
"class 0"
>>> discrete_label("Cn1c(NC(=O)c2ccccc2)nc2c3ncccc3ccc21")
"class 1"
>>> discrete_label("Cn1c(NC(=O)c2ccccc2)nc2c3nccnc3ccc21")
"class 1"

Recorded test outcome, item Cn1c(NC(=O)c2ccccc2)nc2c3ccncc3ccc21
class 1

Recorded test outcome, item CO[C@H]1/C=C/O[C@@]2(C)Oc3c(C)c(O)c4c(O)c(c(C=NN5CCN(C)CC5)c(O)c4c3C2=O)NC(=O)/C(C)=C\C=C\[C@H](C)[C@H](O)[C@@H](C)[C@@H](O)[C@@H](C)[C@H](OC(C)=O)[C@@H]1C
class 1

Recorded test outcome, item Cn1c(NC(=O)c2cccnc2)nc2ccccc21
class 1

Recorded test outcome, item CN1CCN(c2ccc(C(=O)Nc3nc4ccccc4n3C)cc2)CC1
class 0

Recorded test outcome, item Cn1c(NC(=O)c2ccc(N3CCCCC3)cc2)nc2ccccc21
class 0

Recorded test outcome, item Cn1c(NC(=O)c2ccccc2)nc2c(Cl)cccc21
class 0

Recorded test outcome, item Cn1c(N)nc2ccccc21
class 0

Recorded test outcome, item Cn1c(NC(=O)c2ccccc2)nc2c3cnccc3ccc21
class 1

Recorded test outcome, item CCN(CC)CCn1c(NC(=O)c2ccccc2)nc2ccccc21
class 1

Recorded test outcome, item Cn1c(NC(=O)c2ccccc2)nc2cc(C#N)ccc21
class 0

Recorded test outcome, item Cn1c(NC(=O)c2ccccc2)nc2c(C#N)cccc21
class 0

Recorded test outcome, item O=C(Nc1nc2ccccc2n1C1CCCCC1)c1ccccc1
class 0

Recorded test outcome, item Cn1c(N2CCN(C(=O)c3ccccc3)CC2)nc2ccccc21
class 0
